Provenance of the data: patent US7713994B2

Tested on: LoVo
measurement-protocol: Cytotoxicity assay (SRB), LoVo
Assay type: cell-based
condition-notes: LoVo cells, SRB, three days; read-out: In Vitro Cellular Activity IC50 LOVO
pIC50: −log10 of the molar value.
assay-metric: pIC50

compound: CCCOc1ccc(CN/C=C2\C(=O)NC(=O)c3ccc(I)cc32)nc1Br [Example 379]
system: LoVo
assay-metric: pIC50
result-number: 5.59

====

assay-metric: melting point

molecule: O=C1NC(=O)c2ccc(-c3ccc(C(F)(F)F)cc3)cc2/C1=C/Nc1ccc(CN2CCCC2)cc1
result: 176 to 177 °C
--
molecule: CCN1CCN(c2ccc(N/C=C3\C(=O)NC(=O)c4ccc(-c5ccoc5)cc43)nc2)CC1
result: 256 to 257 °C
--
molecule: COC[C@H]1CCCN1Cc1ccc(N/C=C2\C(=O)NC(=O)c3ccc(-c4ccsc4)cc32)cc1
result: 95 to 96 °C
--
molecule: CCCOc1ccc(CN/C=C2\C(=O)NC(=O)c3cc(OC)c(Br)cc32)cc1O
result: 212 to 214 °C (dec.)
--
molecule: CN1CCN(c2ccc(N/C=C3\C(=O)NC(=O)c4ccc(-c5ccsc5)cc43)cc2)CC1
result: 224 to 226 °C
--
molecule: COc1cc(CN/C=C2\C(=O)NC(=O)c3ccc(-c4ccc(Cl)cc4)cc32)cc(O)c1OC
result: 240 to 241 °C
--
molecule: O=C1NC(=O)c2ccccc2/C1=C/Nc1cccc(CN2CCCC2)c1
result: 172 to 173 °C
--
molecule: CN(C)C1CCN(Cc2ccc(N/C=C3\C(=O)NC(=O)c4ccc(-c5ccc(F)cc5)cc43)cc2)C1 (centres unmarked)
result: 95 to 96 °C
